procedure-details: Inhibition of p38 MAPK at 10 uM by ELISA
assay-readout: inhibition (%)
// note: answer is a bare numeric in %

// worked examples, inhibition included
Cc1nn(Cc2ccccc2)c2c1C(c1ccc(Br)cc1)C(C#N)=C(N)O2 (configuration not stated) ... 40
CCC(O)Cc1nc(N)c(C#N)c(-c2ccccc2OC)c1C (configuration not stated) ... 20
COc1ccc(OCc2nn3c(-c4ccc(Cl)cc4Cl)nnc3s2)cc1 ... 31
COc1ccc(OCc2nnc3sc(-c4ccccc4Cl)nn23)cc1 ... 34
Clc1ccccc1-c1nnc2sc(CCc3ccccc3)nn12 ... 72
Cc1ccc(NC(=O)Nc2c(Cl)cccc2Cl)c2c1CC(C)(C)O2 ... 66
Fc1ccc(-c2nnc3sc(CCc4ccccc4)nn23)cc1 ... 32
Cc1sc2ncnc(SCC(=O)c3ccc(F)cc3)c2c1C ... 24
COc1ccccc1Cc1nnc2sc(COc3ccc(F)cc3)nn12 ... 79
Clc1ccc(-c2nnc3sc(CCc4ccccc4)nn23)c(Cl)c1 ... 45

The measured inhibition associated with CC(C)(C)c1nnc2sc(COc3ccc(F)cc3)nn12 reads 53

Briefly, inhibition measured for Cc1occc1-c1nnc2sc(C(C)Oc3ccccc3)nn12 (configuration not stated) : 30
